test system: SF-268 CNS; assay: NCI-60 one-dose screen, 48 h; settings: 10 µM unless noted
This is part of a sample that, as a whole, favours compounds with a hit. Of some 83,000 tested, about 20% had one in any assay. Active and inactive are the calls of the source. The calls were made as follows: active = growth percent below 10; inactive = the rest.
Please answer using one outcome listed in active, inactive

[
  {
    "compound": "CN(CCCCCl)P(=O)(OCc1ccc([N+](=O)[O-])o1)C(F)(F)c1ccc(CC(=O)NC[C@@H](O)/C=C\\[C@@H](O)[C@H](CO)Cc2ccccc2)cc1 (some centres undefined)",
    "assigned-category": "inactive"
  }
]

So what was the verdict on `CC1=CC(=NN=c2cc(C)n([O-])c(C)c2)C=C(C)[N+]1=O` in this test?
inactive

So what was the verdict on `CN(C)S(=O)(=O)c1cccc(-c2nc3sc4c(c3c(=O)[nH]2)CCCC4)c1` in this test?
inactive

* * *

tested on: A498 renal; experiment: NCI-60 one-dose screen, 48 h; conditions: 10 µM unless noted
Compounds without any hit were thinned out: in the full panel of roughly 83,000, 20% have a hit. Active and inactive are the calls of the source. The calls were made as follows: active = growth percent below 10; inactive = the rest.
Please answer using one outcome listed in Yes for active, No for inactive

[
  {
    "compound": "CN(C)S(=O)(=O)c1cccc(-c2nc3sc4c(c3c(=O)[nH]2)CCCC4)c1",
    "assigned-category": "Yes"
  },
  {
    "compound": "CCCCC[C@H]1C/C=C2/C(=O)C=C[C@@H]2C/C=C\\CCCC(=O)O1",
    "assigned-category": "Yes"
  },
  {
    "compound": "CN1C(=O)C2(SCC(C(=O)NCc3ccccc3)N2C(=O)C2CCCCC2)c2ccccc21 (stereo not given)",
    "assigned-category": "No"
  },
  {
    "compound": "CCCOc1cc2ccccc2cc1C(=O)Nc1nc(NC)c2c(ccc3nccc32)[nH]1",
    "assigned-category": "Yes"
  },
  {
    "compound": "COc1ccc(C(=O)COc2cccc(/C=C3\\CSc4ccccc4C3=O)c2)cc1",
    "assigned-category": "No"
  },
  {
    "compound": "Cc1ccc(-c2onc3c(=O)[nH]nc(-c4ccccc4)c23)cc1",
    "assigned-category": "No"
  },
  {
    "compound": "COc1ccc(Nc2c3c4c(cccc4[nH]c2=O)C(=O)c2ccccc2-3)cc1",
    "assigned-category": "No"
  },
  {
    "compound": "CCCc1cc(=O)n2c(C(=O)Nc3ccc(F)cc3)c(C(=O)Nc3ccc(F)cc3)sc2n1",
    "assigned-category": "No"
  }
]

So what was the verdict on `COc1ccc(Nc2cc(C)nc(N3CCN(c4ccnc5cc(Cl)ccc45)CC3)n2)cc1` in this test?
Yes

So what was the verdict on `COC(=O)c1ccc(NC(=O)c2ccc(-c3cccc([N+](=O)[O-])c3)o2)cc1` in this test?
No

* * *

tested on: SK-MEL-28 melanoma; assay: NCI-60 one-dose screen, 48 h; settings: 10 µM unless noted
The panel holds about 83,000 compounds, 20% with a hit somewhere; the sample as a whole holds those more often. The source made the active and inactive calls. Rule for the calls: active = growth percent below 10; inactive = the rest.
Please answer using one outcome listed in active, inactive

Answered cases to consult:
[
  {
    "compound": "N#Cc1c(-c2ccc(Cl)cc2)nc(NN=Cc2ccco2)nc1N1CCOCC1",
    "measurement-target": "SK-MEL-28 melanoma",
    "assigned-category": "inactive"
  },
  {
    "compound": "COc1ccc(C2CC(c3ccc(Cl)cc3)=NN2/C=C2\\SC(=S)N(NC(=O)Cc3ccccc3Nc3c(Cl)cccc3Cl)C2=O)cc1 (stereo not drawn)",
    "measurement-target": "SK-MEL-28 melanoma",
    "assigned-category": "inactive"
  },
  {
    "compound": "NNCCc1ccc(NC(=O)CCCc2ccc(/C=C/C(=O)NO)cc2)cc1",
    "measurement-target": "SK-MEL-28 melanoma",
    "assigned-category": "inactive"
  },
  {
    "compound": "C=C1C(=O)O[C@H]2[C@H]1CC/C(COC(=O)c1cc3cc(OC)ccc3[nH]1)=C\\CC[C@@]1(C)O[C@@H]21",
    "measurement-target": "SK-MEL-28 melanoma",
    "assigned-category": "active"
  },
  {
    "compound": "Clc1ccc2c(NCCCNc3nc(-n4ccnc4)nc4ccccc34)ccnc2c1",
    "measurement-target": "SK-MEL-28 melanoma",
    "assigned-category": "inactive"
  },
  {
    "compound": "CCOC(=O)c1csc(NC(=O)COc2cccc(/C=C3\\CSc4ccccc4C3=O)c2)n1",
    "measurement-target": "SK-MEL-28 melanoma",
    "assigned-category": "inactive"
  },
  {
    "compound": "O=C1/C(=C/c2ccccc2)SC(=S)N1CCc1ccc(O)cc1",
    "measurement-target": "SK-MEL-28 melanoma",
    "assigned-category": "inactive"
  }
]

We next turn to a different compound, shown below.
So what was the verdict on `Cc1ncc(C(=O)Nc2ccc(CN3CCN(C)CC3)c(C(F)(F)F)c2)cc1C#Cc1cnc2cccnn12` in this test?
active

Numbers sourced from PubChem BioAssay (NCI).
